Target: human Nav1.5 channels stably expressed in HEK 293 cells (Homo sapiens, UniProt Q14524)
Construct: expressed in transfected cells
Sequence (Q14524 whole entry): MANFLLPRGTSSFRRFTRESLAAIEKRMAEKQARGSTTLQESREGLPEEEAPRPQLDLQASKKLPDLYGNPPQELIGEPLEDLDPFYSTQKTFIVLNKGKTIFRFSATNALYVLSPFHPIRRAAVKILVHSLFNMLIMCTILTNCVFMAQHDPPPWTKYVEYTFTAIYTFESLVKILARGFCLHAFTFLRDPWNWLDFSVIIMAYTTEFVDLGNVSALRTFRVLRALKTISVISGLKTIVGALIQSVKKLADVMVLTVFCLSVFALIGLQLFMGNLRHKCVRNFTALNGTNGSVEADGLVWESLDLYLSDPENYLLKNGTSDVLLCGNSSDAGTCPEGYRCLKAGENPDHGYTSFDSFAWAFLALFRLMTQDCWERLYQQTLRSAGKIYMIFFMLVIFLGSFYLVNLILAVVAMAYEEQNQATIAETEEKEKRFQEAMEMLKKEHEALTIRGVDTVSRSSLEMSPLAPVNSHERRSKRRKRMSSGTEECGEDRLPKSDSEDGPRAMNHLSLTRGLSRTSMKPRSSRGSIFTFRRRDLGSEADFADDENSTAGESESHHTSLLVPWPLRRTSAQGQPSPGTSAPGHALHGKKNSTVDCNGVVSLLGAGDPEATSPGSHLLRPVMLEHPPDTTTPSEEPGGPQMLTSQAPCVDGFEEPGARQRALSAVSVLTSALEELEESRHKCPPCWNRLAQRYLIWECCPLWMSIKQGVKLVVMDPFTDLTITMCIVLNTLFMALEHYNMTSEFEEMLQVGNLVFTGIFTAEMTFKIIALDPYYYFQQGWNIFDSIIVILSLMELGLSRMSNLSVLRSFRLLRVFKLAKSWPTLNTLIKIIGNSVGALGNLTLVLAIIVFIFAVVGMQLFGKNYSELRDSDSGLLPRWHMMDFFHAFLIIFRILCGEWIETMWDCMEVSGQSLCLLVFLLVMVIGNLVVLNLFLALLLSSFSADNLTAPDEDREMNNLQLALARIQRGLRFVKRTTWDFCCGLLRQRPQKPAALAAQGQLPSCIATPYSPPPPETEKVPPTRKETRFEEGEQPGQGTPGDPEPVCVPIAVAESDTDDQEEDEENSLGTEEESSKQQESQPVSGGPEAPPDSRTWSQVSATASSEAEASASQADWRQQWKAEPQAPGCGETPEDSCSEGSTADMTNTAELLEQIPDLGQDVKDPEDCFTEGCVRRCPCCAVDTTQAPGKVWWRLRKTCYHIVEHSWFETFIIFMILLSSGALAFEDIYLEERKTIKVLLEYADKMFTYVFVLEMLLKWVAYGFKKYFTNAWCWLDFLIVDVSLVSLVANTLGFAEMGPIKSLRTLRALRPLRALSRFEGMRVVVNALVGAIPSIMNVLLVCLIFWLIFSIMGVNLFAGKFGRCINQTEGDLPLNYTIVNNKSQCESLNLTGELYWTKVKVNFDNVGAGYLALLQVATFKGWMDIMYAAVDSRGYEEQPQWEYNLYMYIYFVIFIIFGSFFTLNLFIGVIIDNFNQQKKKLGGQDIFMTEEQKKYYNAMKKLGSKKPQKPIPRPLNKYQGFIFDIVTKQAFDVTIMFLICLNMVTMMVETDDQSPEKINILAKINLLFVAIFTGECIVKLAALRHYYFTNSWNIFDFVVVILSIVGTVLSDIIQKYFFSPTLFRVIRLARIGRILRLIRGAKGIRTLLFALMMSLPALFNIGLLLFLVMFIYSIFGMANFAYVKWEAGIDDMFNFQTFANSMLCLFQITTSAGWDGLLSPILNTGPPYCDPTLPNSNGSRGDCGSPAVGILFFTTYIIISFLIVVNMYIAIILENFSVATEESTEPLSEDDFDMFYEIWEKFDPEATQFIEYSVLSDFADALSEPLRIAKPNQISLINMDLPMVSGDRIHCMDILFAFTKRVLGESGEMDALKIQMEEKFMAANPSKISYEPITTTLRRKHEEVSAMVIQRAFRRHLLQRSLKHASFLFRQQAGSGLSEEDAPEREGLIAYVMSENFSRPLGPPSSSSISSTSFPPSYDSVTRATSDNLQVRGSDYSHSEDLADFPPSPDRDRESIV
Assay: PatchXpress 7000 automated patch-clamp, sodium current
Format: cell-based
Settings: selectivity over Nav1.5
Measurement Name: ratio of Nav 1.5:Nav 1.7 potency, determined by PatchXpress measurement

>  <Molecule>
C[C@@H](c1cccc2cncn12)n1c(=O)oc2cc(S(=O)(=O)Nc3nccs3)c(F)cc21

>  <Assay Result>
48

$$$$
>  <Molecule>
CC(c1cccc(-c2cccnc2)c1)n1c(=O)oc2cc(S(=O)(=O)Nc3ncns3)c(F)cc21 (stereo not shown)

>  <Assay Result>
57

$$$$
>  <Molecule>
C[C@H](c1cccc2ccncc12)n1c(=O)oc2cc(S(=O)(=O)Nc3ncns3)ccc21

>  <Assay Result>
749

$$$$
>  <Molecule>
O=c1oc2cc(S(=O)(=O)Nc3ncns3)c(F)cc2n1Cc1cccc2c1CC(NCCF)CC2 (racemic)

>  <Assay Result>
920

$$$$
